# System Tested: recombinant human PAPPA (pregnancy associated plasma protein-A) (human, UniProt Q13219 82-1627)
# Sequence (Q13219 82-1627 limits assumed): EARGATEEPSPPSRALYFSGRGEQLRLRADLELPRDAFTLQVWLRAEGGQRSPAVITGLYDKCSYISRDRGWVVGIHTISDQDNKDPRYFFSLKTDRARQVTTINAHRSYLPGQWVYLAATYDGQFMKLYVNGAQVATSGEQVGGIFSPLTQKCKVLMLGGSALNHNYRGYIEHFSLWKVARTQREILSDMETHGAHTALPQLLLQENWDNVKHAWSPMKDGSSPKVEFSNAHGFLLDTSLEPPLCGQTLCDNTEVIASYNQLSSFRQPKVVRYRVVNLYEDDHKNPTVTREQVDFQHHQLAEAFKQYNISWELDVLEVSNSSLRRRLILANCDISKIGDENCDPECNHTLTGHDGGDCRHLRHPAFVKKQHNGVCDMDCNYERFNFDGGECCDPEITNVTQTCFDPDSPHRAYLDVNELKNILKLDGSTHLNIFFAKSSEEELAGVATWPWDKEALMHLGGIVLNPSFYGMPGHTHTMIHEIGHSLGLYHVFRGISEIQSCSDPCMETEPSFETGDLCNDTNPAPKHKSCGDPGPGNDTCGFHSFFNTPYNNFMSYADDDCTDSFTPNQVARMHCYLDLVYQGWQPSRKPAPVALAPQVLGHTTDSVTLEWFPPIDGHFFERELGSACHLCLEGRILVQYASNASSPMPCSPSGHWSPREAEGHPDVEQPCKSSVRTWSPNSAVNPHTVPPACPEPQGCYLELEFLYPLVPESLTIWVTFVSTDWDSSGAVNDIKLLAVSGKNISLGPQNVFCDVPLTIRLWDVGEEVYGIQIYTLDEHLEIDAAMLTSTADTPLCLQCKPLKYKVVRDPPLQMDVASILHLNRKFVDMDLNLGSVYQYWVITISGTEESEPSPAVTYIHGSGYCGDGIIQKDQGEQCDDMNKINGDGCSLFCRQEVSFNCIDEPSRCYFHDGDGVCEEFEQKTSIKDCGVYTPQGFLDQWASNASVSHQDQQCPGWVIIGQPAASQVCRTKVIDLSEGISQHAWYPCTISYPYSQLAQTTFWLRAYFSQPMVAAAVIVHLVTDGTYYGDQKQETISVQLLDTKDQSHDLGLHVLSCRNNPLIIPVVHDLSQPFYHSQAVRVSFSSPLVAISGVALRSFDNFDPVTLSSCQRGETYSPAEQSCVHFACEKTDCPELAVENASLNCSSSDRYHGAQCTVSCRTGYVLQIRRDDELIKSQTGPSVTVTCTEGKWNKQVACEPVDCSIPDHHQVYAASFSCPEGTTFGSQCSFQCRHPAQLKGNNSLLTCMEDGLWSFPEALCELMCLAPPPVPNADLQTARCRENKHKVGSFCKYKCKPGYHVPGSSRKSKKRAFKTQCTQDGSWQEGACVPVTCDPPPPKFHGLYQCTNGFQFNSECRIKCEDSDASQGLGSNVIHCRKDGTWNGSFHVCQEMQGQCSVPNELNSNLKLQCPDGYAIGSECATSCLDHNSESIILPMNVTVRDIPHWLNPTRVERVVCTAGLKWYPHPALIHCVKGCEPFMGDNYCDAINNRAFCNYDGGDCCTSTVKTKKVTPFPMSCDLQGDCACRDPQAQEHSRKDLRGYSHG
# Measurement Protocol: cell-based or functional assay
Below: a set of entries, each annotated with reported PAPP-A cleavage of IGFBP-4 Mean pIC50.
Readout Type: PAPP-A cleavage of IGFBP-4 Mean pIC50 (pIC50)

Binder	Readout Type	Endpoint Unit	Test Result
TPP-12708 (antibody, human IgG1, kappa, V domains shown) VH: QVQLVQSGAEVKKPGASVKVSCKASGYTFTSYAMHWVRQAPGQRLEWMGWINAGTGATKYARKFQGRVTITRDTSASTAYMELSSLRSEDTAVYYCARGPSMETPTTYGMEVWGQGTTVTVSS VL: DIQMTQSPSSVSASVGDRVTITCRASQGISRWLAWYQQKPGKAPKLLIYSTSSLQLGVPSRFSGSGSGTDFTLTISSLQPEDFATYYCQQENDYPFTFGGGTKVEIKR	PAPP-A cleavage of IGFBP-4 Mean pIC50	pIC50	10.2
TPP-12683 (antibody, human IgG1, kappa, V domains shown) VH: QLQLQESGPGLVKPSETLSLTCTVSGGSISSSSYNWGWIRQPPGKGLEWIGSISSSGSTYFNPSLKSRVTISVDTSKNQFSLKLSSVTAADTAVYYCARSGYRPSFYAMDAWGQGTTVTVSS VL: DIQLTQSPSSVSASVGDRVTITCRASQDISYWLAWYQQKPGKAPKLLIYAASSLQSGVPSRFSGSGSGTDFTLTISSLQPEDFATYYCQQAYLLHTFGGGTKVEIKR	PAPP-A cleavage of IGFBP-4 Mean pIC50	pIC50	8.8
TPP-12792 (antibody, human IgG1, kappa, V domains shown) VH: QLQLQESGPGLVKPSETLSLTCTVSGGSISSSDYYWGWIRQPPGKGLEWIGSIFYSGSTYYNPSLKSRVTISVDTSKNQFSLKLSSVTAADTAVYYCARATTSSSADYWGQGTLVTVSS VL: DIQMTQSPSSVSASVGDRVTITCRASQGISRWLAWYQQKPGKAPKLLIYAASSVQSGVPSRFSGSGSGTDFTLTISSLQPEDFATYYCQQGNVPPLTFGGGTKVEIKR	PAPP-A cleavage of IGFBP-4 Mean pIC50	pIC50	9.53
TPP-12744 (antibody, human IgG1, kappa, V domains shown, human IgG1/kappa, Fc-disabled (L235A, G237A)) VH: QVQLVQSGAEVKKPGASVKVSCKASGYTFTSYAMHWVRQAPGQRLEWMGWMNAGTGATKSSQKFQGRVTITRDTSASTAYMELSSLRSEDTAVYYCARGPSMETPTTFGMDVWGQGTTVTVSS VL: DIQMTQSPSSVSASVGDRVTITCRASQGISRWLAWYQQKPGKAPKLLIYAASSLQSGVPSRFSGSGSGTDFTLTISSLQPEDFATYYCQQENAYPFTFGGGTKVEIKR	PAPP-A cleavage of IGFBP-4 Mean pIC50	pIC50	10
TPP-12801 (antibody, human IgG1, kappa, V domains shown) VH: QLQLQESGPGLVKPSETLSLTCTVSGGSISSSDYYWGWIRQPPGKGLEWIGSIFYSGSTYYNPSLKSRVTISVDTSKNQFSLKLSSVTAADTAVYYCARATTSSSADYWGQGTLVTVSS VL: DIQMTQSPSSVSASVGDRVTITCRASQGVSRWLAWYQQKPGKAPKLLIYAASSLQSGVPSRFSGSGSGTDFTLTISSLQPEDFATYYCQQGNVPPLTFGGGTKVEIKR	PAPP-A cleavage of IGFBP-4 Mean pIC50	pIC50	8.96
